Value source: patent US20200399712A1

# System: HPV-16
# test: qPCR sensitivity against HPV-HNSCC tumor samples diluted among 10 ng normal human DNA
# measurement conditions: Sample # 9
measurement kind: Threshold of tumor cell numbers for HPV-16 detection (tumor cells)
Just the number in tumor cells, nothing appended.

| molecule | readout value |
| --- | --- |
| E6: previously designed (historical) HPV-16 E6 primers and Taqman probe, SEQ ID NO: 7-9, positive control (nucleic acid, Taqman probe, labels not given here) DNA 1: TCAGGACCCACAGGAGCG DNA 2: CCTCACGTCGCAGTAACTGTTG DNA 3: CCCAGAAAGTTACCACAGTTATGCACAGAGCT | 60.0 |

// Threshold of tumor cell numbers for HPV-16 detection lookup, molecule = BR E1-5: HPV-16 E1 region primer/probe set, SEQ ID NO: 40-42 (same as SEQ ID NO: 1-3) (nucleic acid, chemistry not given here) DNA 1: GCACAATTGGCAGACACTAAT DNA 2: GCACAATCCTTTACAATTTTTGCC DNA 3: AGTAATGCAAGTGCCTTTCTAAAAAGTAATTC , result: 1.2
